Test system: THP-1 cells
Experiment: Measurement of IL-1β production, hTRF protocol (second alternative procedure), THP-1 cells
Assay type: cell-based, human
Conditions: Homo sapiens, THP-1, IL-1β production, human; read-out: NLRP3 hILIB EC50
Description: Measurement of IL-1β Production—hTRF Protocol (Second Alternative Procedure) Serial dilutions of compounds in DMSO were added to low volume 384 well plates at 100 nl/well using an ECHO 550 acoustic dispenser (Labcyte) to achieve final starting concentration of 10 μM in assay. […] After the 2 hour incubation, the cell plates were spun in the centrifuge for 5 minutes at 1200 rpm. […] The plates were then read on the Perkin Elmer EnVision at 665/615 nm using the hTRF laser.
readout-type: pEC50
FYI, pEC50 means -log10 of a concentration in mol per litre.

The cases that follow already have their pEC50 on record.
{"compound": "Nc1nc2cc(-c3cc[nH]n3)ccc2c2nn(CC(F)F)cc12 [Example 224]", "measurement-target": "THP-1 cells", "pEC50": 6.85}
{"compound": "Nc1nc2cc(-c3cc[nH]n3)ccc2c2cn(CCNC(=O)c3cnc4ccccn4c3=O)nc12 [Example 98]", "measurement-target": "THP-1 cells", "pEC50": 5.80}

Tell me pEC50 of Nc1nc2cc(-c3cc[nH]n3)ccc2c2cn(CCNC(=O)c3csc(-c4ccncc4)n3)nc12 [Example 86] when tested on THP-1 cells.
5.56

Under THP-1 cells: report pEC50 of Cc1cc(C)n(CCn2cc3c(n2)c(N)nc2cc(-n4cccn4)ccc23)n1 [Example 12] .
5.82

Look up THP-1 cells data: pEC50 of Nc1nc2cc(-c3ccn[nH]3)ccc2c2[nH]c(CCNC(=O)c3ccccn3)cc12 [Example 155] , then report it.
8.00
